target_under_test: c-Src kinase (human) (Homo sapiens)
Construct: purchased Upstate Biotechnology, Lake Placid, N.Y
Sequence (P12931 whole entry): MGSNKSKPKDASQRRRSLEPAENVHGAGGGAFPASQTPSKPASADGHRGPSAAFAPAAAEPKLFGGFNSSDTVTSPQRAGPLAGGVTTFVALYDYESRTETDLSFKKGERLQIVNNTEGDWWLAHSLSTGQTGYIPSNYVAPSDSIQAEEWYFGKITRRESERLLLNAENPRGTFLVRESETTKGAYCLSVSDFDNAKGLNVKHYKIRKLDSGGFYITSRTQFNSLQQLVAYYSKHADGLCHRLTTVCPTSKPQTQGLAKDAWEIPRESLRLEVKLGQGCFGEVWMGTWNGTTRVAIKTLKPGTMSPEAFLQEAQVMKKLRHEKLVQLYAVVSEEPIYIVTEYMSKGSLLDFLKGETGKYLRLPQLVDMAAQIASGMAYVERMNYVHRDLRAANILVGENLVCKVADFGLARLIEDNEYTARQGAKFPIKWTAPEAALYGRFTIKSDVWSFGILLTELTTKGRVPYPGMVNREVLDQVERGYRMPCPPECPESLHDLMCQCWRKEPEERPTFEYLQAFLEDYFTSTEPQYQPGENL
procedure_summary: c-Src Kinase Assay
Type: biochemical
cond: test concentration of 2 μM; multiple values are separate assay results
Entries and their inhibition at 2 µM values follow.
Please respond with the number in % and leave the unit unwritten.

{"columns": ["compound", "inhibition at 2 µM [%]"],
 "data": [
  ["COc1cc(N2C(=O)Nc3c(C(=O)Nc4ccc(CN5CCOCC5)cc4)sc4ncnc2c34)c(Cl)cc1Cl [Cpd 44]", 45],
  ["O=C(Nc1ccc(CN2CCOCC2)cc1)c1sc2ncnc3c2c1NC(=O)N3c1ccc(N2CCOCC2)cc1 [Cpd 123]", 77],
  ["CC(C)(C)OC(=O)N1CCC(NC(=O)c2sc3ncnc4c3c2NC(=O)N4c2ccc3c(ccn3Cc3cccc(F)c3)c2)CC1 [Cpd 91]", -37]
]}

*Q* What inhibition at 2 µM value was documented for this compound, COc1ccc(Cl)c(N2C(=O)Nc3c(C(=O)Nc4ccc(OCCN5CCOCC5)c(OC)c4)sc4ncnc2c34)c1 [Cpd 50] ?
*A* 20

*Q* I would be grateful if you could share the reported inhibition at 2 µM for Cc1cccc(Cl)c1N1C(=O)Nc2c(C(=O)Nc3ccc(CN4CCOCC4)cc3)sc3ncnc1c23 [Cpd 146] .
*A* 45

*Q* # inhibition at 2 µM lookup, item O=C(NCCCO)c1sc2ncnc3c2c1NC(=O)N3c1ccc(Oc2cccc(F)c2)cc1 [Cpd 133]
*A* 16

*Q* Recorded inhibition at 2 µM of O=C(Nc1ccc(CN2CCOCC2)cc1)c1sc2ncnc3c2c1NC(=O)N3c1ccc2c(cnn2Cc2cccc(F)c2)c1 [Cpd 175] , please.
*A* -1

*Q* I would be grateful if you could share the reported inhibition at 2 µM for O=C(Nc1ccc(CN2CCCCC2)cc1)c1sc2ncnc3c2c1NC(=O)N3c1ccc(Oc2cccc(F)c2)cc1 [Cpd 131] .
*A* 36

*Q* # input compound: O=C(Nc1ccc(CN2CCOCC2)cc1)c1sc2ncnc3c2c1NC(=O)N3c1ccc(OCc2ccccn2)c(Cl)c1 [Cpd 52] ; wanted: its inhibition at 2 µM
*A* 1

*Q* For the compound shown here, O=C(Nc1ccc(CN2CCOCC2)cc1)c1sc2ncnc3c2c1NC(=O)N3c1ccc(F)c(Br)c1 [Cpd 153] , give the reported inhibition at 2 µM.
*A* 16

*Q* Record request: inhibition at 2 µM value, item O=C(Nc1ccc(NCCCN2CCOCC2)nc1)c1sc2ncnc3c2c1NC(=O)N3c1cccc(Br)c1 [Cpd 64]
*A* -14

*Q* Requested read-out: inhibition at 2 µM. Entry: C[C@H](c1ccccc1)N1C(=O)Nc2c(C(=O)NC3CCN(C)CC3)sc3ncnc1c23 [Cpd 173]
*A* -8

*Q* Recorded inhibition at 2 µM of Cc1ccc(Oc2ccc(N3C(=O)Nc4c(C(=O)Nc5ccc(CN6CCOCC6)cc5)sc5ncnc3c45)cc2Cl)cn1 [Cpd 129] , please.
*A* -3

*Q* Record request: inhibition at 2 µM value, item O=C(Nc1ccc(CCN2CCCCC2)cc1)c1sc2ncnc3c2c1NC(=O)N3c1ccc(Oc2ccccc2)c(Cl)c1 [Cpd 136]
*A* -41

*Q* If you can, please state the reported inhibition at 2 µM value of O=C(NCCCO)c1sc2ncnc3c2c1NC(=O)N3c1ccc(F)c(Br)c1 [Cpd 154] .
*A* 8

*Q* Could you tell me which inhibition at 2 µM is on file for Cc1ccc(Oc2ccc(N3C(=O)Nc4c(C(=O)Nc5ccc(CN6CCOCC6)cc5)sc5ncnc3c45)cc2C)cn1 [Cpd 119] ?
*A* -17

*Q* Item under review: O=C(Nc1ccc(CN2CCOCC2)cc1)c1sc2ncnc3c2c1NC(=O)N3c1c(Cl)ccc2c1OCO2 [Cpd 62] . Reported inhibition at 2 µM?
*A* 83

*Q* What value of measured inhibition at 2 µM is listed for O=C(Nc1ccc(CN2CCOCC2)cc1)c1sc2ncnc3c2c1NC(=O)N3c1c(Cl)cccc1Cl [Cpd 104] ?
*A* 55

*Q* Please report the recorded inhibition at 2 µM for NCCCNC(=O)c1sc2ncnc3c2c1NC(=O)N3c1ccc2c(ccn2Cc2cccc(F)c2)c1 [Cpd 142] .
*A* 10

Source of measurements: patent US7579356B2
